- Tested on: Streptococcus pyogenes
- measurement_notes: Effective dose against mice infected with streptococcus pyogenes after peroral administration (in vivo)
- Format: functional
- conditions: in Mus musculus, po
Lab note: compare ED50 with 10 mg/kg, writing YES if less and NO if equal or more.

[in] Consider CCCCCCCCN[C@@H]1[C@H](C)[C@@H](O)[C@](C)(O)[C@@H](CC)OC(=O)[C@H](C)[C@@H](OC2CC(C)(OC)C(O)C(C)O2)[C@H](C)[C@@H](OC2OC(C)CC(N(C)C)C2O)[C@](C)(O)C[C@H]1C (some centres undefined) . Does its ED50 lie strictly below 10 mg/kg?
[out] NO

[in] Consider CC[C@H]1OC(=O)[C@H](C)[C@@H](OC2CC(C)(OC)C(O)C(C)O2)[C@H](C)[C@@H](OC2OC(C)CC(N(C)C)C2O)[C@](C)(O)C[C@@H](C)[C@H](NC)[C@H](C)[C@@H](O)[C@]1(C)O (some centres undefined) . Does its ED50 lie strictly below 10 mg/kg?
[out] NO

[in] Consider CC[C@H]1OC(=O)[C@H](C)[C@@H](OC2CC(C)(OC)C(O)C(C)O2)[C@H](C)[C@@H](OC2OC(C)CC(N(C)C)C2O)[C@](C)(O)C[C@@H](C)[C@H](N(C)C2CCCCC2)[C@H](C)[C@@H](O)[C@]1(C)O (some centres undefined) . Does its ED50 lie strictly below 10 mg/kg?
[out] NO

[in] Consider CC[C@H]1OC(=O)[C@H](C)[C@@H](OC2CC(C)(OC)C(O)C(C)O2)[C@H](C)[C@@H](OC2OC(C)CC(N(C)C)C2O)[C@](C)(O)C[C@@H](C)[C@H](N(C)C)[C@H](C)[C@@H](O)[C@]1(C)O (some centres undefined) . Does its ED50 lie strictly below 10 mg/kg?
[out] NO

[in] Consider CCCN[C@@H]1[C@H](C)[C@@H](O)[C@](C)(O)[C@@H](CC)OC(=O)[C@H](C)[C@@H](OC2CC(C)(OC)C(O)C(C)O2)[C@H](C)[C@@H](OC2OC(C)CC(N(C)C)C2O)[C@](C)(O)C[C@H]1C (some centres undefined) . Does its ED50 lie strictly below 10 mg/kg?
[out] YES

[in] Consider CC[C@H]1OC(=O)[C@H](C)[C@@H](OC2CC(C)(OC)C(O)C(C)O2)[C@H](C)[C@@H](OC2OC(C)CC(N(C)C)C2O)[C@](C)(O)C[C@@H](C)[C@H](NCC2CC=CCC2)[C@H](C)[C@@H](O)[C@]1(C)O (some centres undefined) . Does its ED50 lie strictly below 10 mg/kg?
[out] NO

[in] Consider CC[C@H]1OC(=O)[C@H](C)[C@@H](OC2CC(C)(OC)C(O)C(C)O2)[C@H](C)[C@@H](OC2OC(C)CC(N(C)C)C2O)[C@](C)(O)C[C@@H](C)[C@H](NCCCC#N)[C@H](C)[C@@H](O)[C@]1(C)O (some centres undefined) . Does its ED50 lie strictly below 10 mg/kg?
[out] NO

[in] Consider CC[C@H]1OC(=O)[C@H](C)[C@@H](OC2CC(C)(OC)C(O)C(C)O2)[C@H](C)[C@@H](OC2OC(C)CC(N(C)C)C2O)[C@](C)(O)C[C@@H](C)[C@H](NCc2ccccc2)[C@H](C)[C@@H](O)[C@]1(C)O (some centres undefined) . Does its ED50 lie strictly below 10 mg/kg?
[out] YES
